Each entry below carries its recorded OD.
Target: T1, hVISTA-Fc (R&D systems. Cat. No. 7126-B7) (human, UniProt Q9H7M9 33-194)
T1 construct: Bought antigen; also called human VISTA-Fc; VISTA-FC Human
T1 sequence: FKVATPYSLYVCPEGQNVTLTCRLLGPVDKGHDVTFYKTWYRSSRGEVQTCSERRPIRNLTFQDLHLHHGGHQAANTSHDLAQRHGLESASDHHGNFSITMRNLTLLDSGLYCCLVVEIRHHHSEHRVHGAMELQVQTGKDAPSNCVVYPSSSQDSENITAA
Assay: monoclonal scFv phage ELISA, plate coated with 1 ug/ml VISTA-Fc, anti-M13-HRP
Reported Metric: OD (OD)

[[record]]
binder = "2C12 monoclonal scFv phage (scFv, V domains shown) VH: QVQLVESGAEVKKPGASVKVSCKASGYIFTDYYMHWVRQAPGQGLEWMGVINPYDGRTSFAQKFQGRLTVTRDTSTSTAYMDLSGLRSEDTAVYYCAKQMGIWDYDAFDIWGQGTMVTVSS VL: QFVLTQPSSVSGAPGQRVIISCTGSSSNIGAGYDVHWYQQLPGTAPKVLIYGNSDRPSGVPDRFSASKSATSASLAITGLQAEDEADYYCVAWDDSLKAYVFGTGTKVTVLG"
reported_metric = "OD"
result_units = "OD"
data_value = 2.11

[[record]]
binder = "1A12 monoclonal scFv phage (scFv, V domains shown) VH: QMQLVESGGGLVEPGRSLRLSCTTSGFSFHDYTMYWVRQVPGKGLEWVSLISWDGTITFYADPVRGRFTISRDNSKNSLYLQMNSLRAEDTAVYYCAKEDRYDYYSGAFDIWGQGTVVTVSS VL: QSALTQPRSVSGSPGQSVTISCTGTSSDVGGYDYVSWYQQHPGKAPKLILNDVNKRPSGVPDRFSGSKSGNTASLTISGLQPDDEADYYCSSFAGSNTLRVFGGGTKLTVLG"
reported_metric = "OD"
result_units = "OD"
data_value = 1.88

[[record]]
binder = "3C5 monoclonal scFv phage (scFv, V domains shown) VH: QVQLVQSGAEVKKPGASVKLSCKASGYTFSSYWMHWVRQAPGQRLEWMGEINPGNGHTNYNEKFKSRVTITVDKSASTAYMELSSLRSEDTAVYYCAKDIAYYDFWSGDAFDLWGQGTMVTVSS VL: SYELTQPLSVSVSPGQTASITCSGDKLGNKYASWYQQKPGQSPVLVIYQDNKRPSGIPERFSGSNSGNTATLTISGTQATDEADYYCQTWDRSTGVFGTGTKVTVLG"
reported_metric = "OD"
result_units = "OD"
data_value = 2.2

[[record]]
binder = "1B8 monoclonal scFv phage (scFv, V domains shown, also called IB8; Anti VISTA.3.0 (1B8)) VH: QMQLVQSGAEVKKPGSSVKVSCKASGGSSSNYAISWVRQAPGQGLEWMGGIIPIFGTTSYAQKFQGRVTITADGSMSTAYMELSSLRSEDTAVYYCAKGAIEPWPFYFDNWGQGTLVTVSS VL: QLVLTQPRSVSGSPGQSVTISCTGTNSDVGAYNYLSWYQQLPGRAPKVIIYDVNKRPSGVPDRFSGSRSGKTASLTISGLQAEDEADYYCAAWDDSLNGLVFGGGTKLTVLG"
reported_metric = "OD"
result_units = "OD"
data_value = 2.13


Values from patent US20200407449A1
